Data provenance is patent US20180371093A1.

- Assayed system: Programmed Death 1 (PD-1) (UniProt Q15116 25-167, limits assumed)
- Sequence (Q15116 25-167 limits assumed): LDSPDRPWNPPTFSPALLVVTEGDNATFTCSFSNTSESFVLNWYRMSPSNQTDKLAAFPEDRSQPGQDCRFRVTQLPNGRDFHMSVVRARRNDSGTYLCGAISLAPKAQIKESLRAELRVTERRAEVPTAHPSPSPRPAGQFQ
- Assay procedure: rank in competition binding against labelled murine mAb BAP049, 2nd experiment
Below, each entry is listed with its recorded Competition Binding 2nd exp. (rank).
Give the value, in units of rank, as a plain number.

// known answers, use as guide
{"columns": ["Binder", "Competition Binding 2nd exp. (rank)"],
 "data": [
  ["BAP049-hum12 (antibody, human IgG4 S228P, kappa, V domains shown, also called clone 12) VH: EVQLVQSGAEVKKPGESLRISCKGSGYTFTTYWMHWVRQATGQGLEWMGNIYPGTGGSNFDEKFKNRVTITADKSTSTAYMELSSLRSEDTAVYYCTRWTTGTGAYWGQGTTVTVSS VL: DIQMTQSPSSLSASVGDRVTITCKSSQSLLDSGNQKNFLTWYLQKPGQSPQLLIYWASTRESGVPSRFSGSGSGTDFTFTISSLEAEDAATYYCQNDYSYPYTFGQGTKVEIKR", 16],
  ["BAP049-hum01 (antibody, human IgG4 S228P, kappa, V domains shown, Humanized mAb) VH: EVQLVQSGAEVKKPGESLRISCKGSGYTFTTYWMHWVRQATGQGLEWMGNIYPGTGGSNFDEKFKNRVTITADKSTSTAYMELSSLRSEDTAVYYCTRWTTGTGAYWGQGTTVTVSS VL: EIVLTQSPATLSLSPGERATLSCKSSQSLLDSGNQKNFLTWYQQKPGQAPRLLIYWASTRESGVPSRFSGSGSGTEFTLTISSLQPDDFATYYCQNDYSYPYTFGQGTKVEIKR", 2],
  ["BAP049-hum04 (antibody, human IgG4 S228P, kappa, V domains shown, also called clone 4) VH: EVQLVQSGAEVKKPGESLRISCKGSGYTFTTYWMHWIRQSPSRGLEWLGNIYPGTGGSNFDEKFKNRFTISRDNSKNTLYLQMNSLRAEDTAVYYCTRWTTGTGAYWGQGTTVTVSS VL: EIVLTQSPATLSLSPGERATLSCKSSQSLLDSGNQKNFLTWYQQKPGKAPKLLIYWASTRESGVPSRFSGSGSGTDFTFTISSLQPEDIATYYCQNDYSYPYTFGQGTKVEIKR", 15],
  ["BAP049-hum16 (antibody, human IgG4 S228P, kappa, V domains shown, also called clone 16) VH: EVQLVQSGAEVKKPGESLRISCKGSGYTFTTYWMHWVRQAPGQGLEWMGNIYPGTGGSNFDEKFKNRFTISRDNSKNTLYLQMNSLRAEDTAVYYCTRWTTGTGAYWGQGTTVTVSS VL: EIVLTQSPDFQSVTPKEKVTITCKSSQSLLDSGNQKNFLTWYQQKPGQAPRLLIYWASTRESGVPSRFSGSGSGTDFTFTISSLEAEDAATYYCQNDYSYPYTFGQGTKVEIKR", 15]
]}

Inquiry: Request the reported Competition Binding 2nd exp. (rank) associated with BAP049-hum02 (antibody, human IgG4 S228P, kappa, V domains shown, also called clone 2) VH: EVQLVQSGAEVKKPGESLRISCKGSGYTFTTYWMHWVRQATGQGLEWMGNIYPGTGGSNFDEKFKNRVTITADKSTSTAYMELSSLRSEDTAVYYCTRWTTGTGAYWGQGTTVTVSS VL: DIQMTQSPSSLSASVGDRVTITCKSSQSLLDSGNQKNFLTWYQQKPGQAPRLLIYWASTRESGIPPRFSGSGYGTDFTLTINNIESEDAAYYFCQNDYSYPYTFGQGTKVEIKR
Reply text: 2

Inquiry: // repeat for BAP049-hum03 (antibody, human IgG4 S228P, kappa, V domains shown, also called clone 3) VH: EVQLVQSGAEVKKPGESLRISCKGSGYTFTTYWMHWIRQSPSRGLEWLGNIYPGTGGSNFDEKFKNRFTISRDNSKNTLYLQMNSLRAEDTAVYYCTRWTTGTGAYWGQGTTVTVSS VL: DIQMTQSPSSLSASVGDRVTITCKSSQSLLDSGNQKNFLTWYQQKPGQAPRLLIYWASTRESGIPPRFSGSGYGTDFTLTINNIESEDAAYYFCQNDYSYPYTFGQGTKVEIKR and report
Reply text: 14
